method.summary: NCI Yeast Anticancer Drug Screen. Data for the mlh1 strain (AID 171);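 note: 0% = growth of vehicle-treated control cultures of the same strain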
condition.notes: S. cerevisiae mlh1 strain growth inhibition; at 3.7 µM
The panel holds about 79,000 compounds, 15% with a hit somewhere; the sample as a whole holds those more often. Active and inactive are the calls of the source. Cut-off read from the data, not from the text of the source: active = growth inhibition above about 70%; inactive = the rest.
Respond using exactly one of the listed classes: 1 for active, -1 for inactive

Reference set, count: 10
INSERT INTO results (compound, group_label) VALUES
  ('Cc1cnc(/C=N\NC(N)=S)c2cccc(N)c12', -1),
  ('CCOC(=O)/C(O)=C(/C=N/C(=S)Nc1c(CC)cccc1CC)C(=O)OCC', -1),
  ('Cc1ccc(Cl)c2c(=O)c3ccccc3[nH]c12', -1),
  ('COc1cc(NCCCCCNC(C)C)c2ncccc2c1Cl', -1),
  ('c1cncc(C(Nc2cccc3cccnc23)Nc2cccc3cccnc23)c1', -1),
  ('CC1=Cc2ccc(C)cc2C(=O)C1=O', -1),
  ('O=C1C=CC(=O)N1c1ccc(Br)cc1Cl', 1),
  ('NCC(O)CSCc1ccc(Cl)cc1 (configuration not stated)', -1),
  ('O=C1c2ccccc2-c2ccc(NC(=O)C3CCCCC3C(=O)O)cc21 (configuration not stated)', -1),
  ('O=C1C=CC(=Nc2ccc3c(c2)Cc2cc(Cl)ccc2-3)O1', -1);

Ask: In this assay, the call recorded for COc1cc(C(C)(C)C)cc(OC)c1C(O)(c1c(OC)cc(C(C)(C)C)cc1OC)c1c(OC)cc(C(C)(C)C)cc1OC was what?
Reply: -1

Ask: In this assay, the call recorded for O=[N+]([O-])C(=C(NCc1ccccc1)NCc1ccccc1)C(Cl)=C(Cl)Cl was what?
Reply: -1

Ask: In this assay, the call recorded for O=C(Nc1ccn(C2CC(O)C(COC(c3ccccc3)(c3ccccc3)c3ccccc3)O2)c(=O)n1)c1ccccc1 (configuration not stated) was what?
Reply: -1

Ask: In this assay, the call recorded for O=S(=O)(Oc1c(Cl)cc(Cl)cc1Cl)c1ccccc1 was what?
Reply: -1

Ask: In this assay, the call recorded for BrC/C=C/C[P+](c1ccccc1)(c1ccccc1)c1ccccc1 was what?
Reply: -1

Ask: In this assay, the call recorded for Nc1nc(Nc2ccccc2)nc(Nc2ccccc2)n1 was what?
Reply: -1

Ask: In this assay, the call recorded for Cc1nc2ccc(NCCN(C)C)c3c(=O)c4ccccc4n1c23 was what?
Reply: -1

Ask: In this assay, the call recorded for CC[C@]1(O)C[C@H]2CN(CCc3c([nH]c4ccccc34)[C@@](C(=O)OC)(c3cc4c(cc3OC)N(C)[C@H]3[C@@](O)(C(=O)OC)[C@H](OC(C)=O)[C@]5(CC)C=CCN6CC[C@]43[C@@H]65)C2)C1 was what?
Reply: -1
